Assay: Drug uptake in anesthetized cynomolgus monkey brain cerebellum after 6.5 mins postinjection
Format: ADME, organism-based, Macaca fascicularis
Details: in vivo
Entries and their Drug uptake values follow.
I only need the number, thanks.

Recorded results for 4 molecules are shown here.
Determine from records and report Drug uptake for O=C(OCCC[18F])C1C2CCC(CC1c1cccc(/C=C\I)c1)N2 (stereo not given)
3.91

Determine from records and report Drug uptake for O=C(OCC[18F])C1C2CCC(CC1c1cccc(/C=C\I)c1)N2 (stereo not given)
2.98

Determine from records and report Drug uptake for O=C(OCCC[18F])C1C2CCC(CC1c1cccc(/C=C\Br)c1)N2 (stereo not given)
5.03

Determine from records and report Drug uptake for O=C(OCC[18F])C1C2CCC(CC1c1cccc(/C=C\Br)c1)N2 (stereo not given)
2.75

Now take the following molecule into account.
Determine from records and report Drug uptake for O=C(OCC[18F])C1C2CCC(CC1c1ccc(/C=C\I)cc1)N2 (stereo not given)
1.79

* * *

Test system: Midbrain
Assay: Drug uptake in anesthetized cynomolgus monkey brain midbrain after 85 mins postinjection
Format: ADME, organism-based, Macaca fascicularis
Set-up: unit not given here
Details: in vivo
Hi! Could you tag entries with Drug uptake below 5 as T, and those at or above as F? Much appreciated.

Here's what some known entries look like.
Confirm or reject: Drug uptake of O=C(OCCC[18F])C1C2CCC(CC1c1cccc(/C=C\Br)c1)N2 (stereo not given) lies strictly below 5
F

Confirm or reject: Drug uptake of O=C(OCC[18F])C1C2CCC(CC1c1cccc(/C=C\I)c1)N2 (stereo not given) lies strictly below 5
T

Query molecule follows.
Confirm or reject: Drug uptake of O=C(OCC[18F])C1C2CCC(CC1c1ccc(/C=C\I)cc1)N2 (stereo not given) lies strictly below 5
T

* * *

Entries and their Drug uptake values follow.
System: Pons
Test: Drug uptake in anesthetized cynomolgus monkey brain pons after 65 mins postinjection
Format: ADME, organism-based, Macaca fascicularis
Details: in vivo
I only need the number, thanks.

Recorded results for 4 compounds are shown here.
Given O=C(OCC[18F])C1C2CCC(CC1c1cccc(/C=C\Br)c1)N2 (stereo not given) , report its Drug uptake on Pons.
4.56

Given O=C(OCCC[18F])C1C2CCC(CC1c1cccc(/C=C\I)c1)N2 (stereo not given) , report its Drug uptake on Pons.
4.54

Given O=C(OCC[18F])C1C2CCC(CC1c1cccc(/C=C\I)c1)N2 (stereo not given) , report its Drug uptake on Pons.
3.2

Given O=C(OCCC[18F])C1C2CCC(CC1c1cccc(/C=C\Br)c1)N2 (stereo not given) , report its Drug uptake on Pons.
4.93

More entries:
Given O=C(OCC[18F])C1C2CCC(CC1c1ccc(/C=C\I)cc1)N2 (stereo not given) , report its Drug uptake on Pons.
3.35

* * *

Assay: Ratio of drug uptake in midbrain to cerebellum in anesthetized cynomolgus monkey after 215 mins postinjection
Type: ADME, organism-based, Macaca fascicularis
Settings: in vivo
Entries and their Ratio values follow.
I only need the number, thanks.

Recorded results for 4 compounds are shown here.
Determine from records and report Ratio for O=C(OCC[18F])C1C2CCC(CC1c1cccc(/C=C\Br)c1)N2 (stereo not given)
2.1

Determine from records and report Ratio for O=C(OCCC[18F])C1C2CCC(CC1c1cccc(/C=C\I)c1)N2 (stereo not given)
1.8

Determine from records and report Ratio for O=C(OCC[18F])C1C2CCC(CC1c1ccc(/C=C\I)cc1)N2 (stereo not given)
3.9

Determine from records and report Ratio for O=C(OCC[18F])C1C2CCC(CC1c1cccc(/C=C\I)c1)N2 (stereo not given)
2.2

Now take the following compound into account.
Determine from records and report Ratio for O=C(OCCC[18F])C1C2CCC(CC1c1cccc(/C=C\Br)c1)N2 (stereo not given)
2.2
